- experimentalTarget: BRD4-BD1 (Homo sapiens (Human))
- assayExplanation: BRD4 AlphaScreen assay, BRD4-BD1
- conditionDescription: H4Ac4 peptide, 75 min, room temperature, read-out: BRD4 BD-1 enzyme IC50
- Procedure: BRD4-BD1 and BRD4-BD2 assays were conducted in white 384-well polystyrene plate in a final volume of 20 μL for BD1 and 40 μL for BD2. Inhibitors were first serially diluted in DMSO and added to the plate wells before the addition of other reaction components. […] After plate sealing, the plate was incubated in the dark at room temperature for 75 min. before reading on a PHERAstar FS plate reader (BMG Labtech). […]
pIC50: −log10 of the molar value.

# compound, experimentalTarget, pIC50
records = [
    ("Cn1cc(-c2ccc3[nH]nnc3c2Oc2ccc(F)cc2F)c2cc[nH]c2c1=O [Example 8]", "BRD4-BD1 (Homo sapiens (Human))", "> 7.00"),
    ("Cn1cc(-c2ccc3c(ncn3C)c2Oc2ccccc2)c2cc[nH]c2c1=O [Example 56]", "BRD4-BD1 (Homo sapiens (Human))", "> 7.00"),
    ("Cn1cc(-c2ccc3[nH]c(=O)[nH]c3c2OCC2CC2)c2cc[nH]c2c1=O [Example 11]", "BRD4-BD1 (Homo sapiens (Human))", "> 7.00"),
    ("Cn1cc(-c2ccc3c([nH]c(=O)n3C)c2Sc2ccccc2)c2cc[nH]c2c1=O [Example 97]", "BRD4-BD1 (Homo sapiens (Human))", "> 7.00"),
    ("COc1c(-c2cn(C)c(=O)c3[nH]ccc23)ccc2c1n(CCN1CCOCC1)c(=O)n2C [Example 50]", "BRD4-BD1 (Homo sapiens (Human))", "6.00 to 7.00"),
    ("Cn1cc(-c2ccc3c(c2OCC2CCC2)n(CCc2ccccc2)c(=O)n3C)c2cc[nH]c2c1=O [Example 63]", "BRD4-BD1 (Homo sapiens (Human))", "> 7.00"),
    ("COc1c(-c2cn(C)c(=O)c3[nH]ccc23)ccc2c1n(CCC#N)c(=O)n2C [Example 54]", "BRD4-BD1 (Homo sapiens (Human))", "6.00 to 7.00"),
    ("Cn1cc(-c2ccc3ncn(CCc4ccccc4)c3c2Oc2ccccc2)c2cc[nH]c2c1=O [Example 47]", "BRD4-BD1 (Homo sapiens (Human))", "> 7.00"),
    ("Cn1cnc2c(Oc3ccc(F)cc3F)c(-c3c[nH]c(=O)c4[nH]ccc34)ccc21 [Example 82]", "BRD4-BD1 (Homo sapiens (Human))", "6.00 to 7.00"),
    ("Cn1cc(-c2ccc3c(c2Oc2ccccc2)N(Cc2ccccc2)C(=O)CO3)c2cc[nH]c2c1=O [Example 101]", "BRD4-BD1 (Homo sapiens (Human))", "6.00 to 7.00"),
    ("CNC(=O)Cn1cnc2ccc(-c3cn(C)c(=O)c4[nH]ccc34)c(Oc3ccc(F)cc3F)c21 [Example 35]", "BRD4-BD1 (Homo sapiens (Human))", "> 7.00"),
    ("Cn1cc(-c2ccc3c(c2OCC2CCC2)n(Cc2ccccc2)c(=O)n3C)c2cc[nH]c2c1=O [Example 64]", "BRD4-BD1 (Homo sapiens (Human))", "> 7.00"),
    ("Cn1cc(-c2ccc3c([nH]c(=O)n3C)c2Oc2ccc(F)cc2)c2cc[nH]c2c1=O [Example 41]", "BRD4-BD1 (Homo sapiens (Human))", "> 7.00"),
    ("Cn1cc(-c2ccc3c(ncn3CC(=O)N3CCOCC3)c2Oc2ccc(F)cc2F)c2cc[nH]c2c1=O [Example 31]", "BRD4-BD1 (Homo sapiens (Human))", "> 7.00"),
    ("Cn1cc(-c2ccc3c([nH]c(=O)n3C)c2Oc2ccc(F)cc2F)c2cc[nH]c2c1=O [Example 6]", "BRD4-BD1 (Homo sapiens (Human))", "> 7.00"),
    ("Cn1cc(-c2ccc3c(ncn3CCN3CCOCC3)c2Oc2ccccc2)c2cc[nH]c2c1=O [Example 43]", "BRD4-BD1 (Homo sapiens (Human))", "> 7.00"),
    ("Cn1cc(-c2ccc3c(nnn3C)c2Oc2ccc(F)cc2F)c2cn[nH]c2c1=O [Example 20]", "BRD4-BD1 (Homo sapiens (Human))", "> 7.00"),
    ("Cn1cc(-c2ccc3c(nc(CNC(=O)C4CC4)n3C)c2Oc2ccccc2)c2cc[nH]c2c1=O [Example 112]", "BRD4-BD1 (Homo sapiens (Human))", "> 7.00"),
    ("Cn1cc(-c2ccc3c([nH]c(=O)n3C)c2Oc2ccc(F)cc2F)c2cn[nH]c2c1=O [Example 21]", "BRD4-BD1 (Homo sapiens (Human))", "> 7.00"),
    ("Cn1cc(-c2ccc3c([nH]c(=O)n3C)c2OC2CCC2)c2cc[nH]c2c1=O [Example 89]", "BRD4-BD1 (Homo sapiens (Human))", "> 7.00"),
    ("CC(=O)N1CCN(CCn2c(=O)n(C)c3ccc(-c4cn(C)c(=O)c5[nH]ccc45)c(OCC4CCC4)c32)CC1 [Example 66]", "BRD4-BD1 (Homo sapiens (Human))", "> 7.00"),
    ("Cn1cc(-c2ccc3oc(CNS(C)(=O)=O)nc3c2Oc2ccccc2)c2cc[nH]c2c1=O [Example 105]", "BRD4-BD1 (Homo sapiens (Human))", "> 7.00"),
    ("CNC(=O)Cn1cnc2c(Oc3ccc(F)cc3F)c(-c3cn(C)c(=O)c4[nH]ccc34)ccc21 [Example 36]", "BRD4-BD1 (Homo sapiens (Human))", "> 7.00"),
]
